src = PubChem BioAssay

# target_or_test_system: Voltage-gated potassium channel subunit beta-2 (Rattus norvegicus) (UniProt P62483)
# Sequence (P62483 whole entry, looked up): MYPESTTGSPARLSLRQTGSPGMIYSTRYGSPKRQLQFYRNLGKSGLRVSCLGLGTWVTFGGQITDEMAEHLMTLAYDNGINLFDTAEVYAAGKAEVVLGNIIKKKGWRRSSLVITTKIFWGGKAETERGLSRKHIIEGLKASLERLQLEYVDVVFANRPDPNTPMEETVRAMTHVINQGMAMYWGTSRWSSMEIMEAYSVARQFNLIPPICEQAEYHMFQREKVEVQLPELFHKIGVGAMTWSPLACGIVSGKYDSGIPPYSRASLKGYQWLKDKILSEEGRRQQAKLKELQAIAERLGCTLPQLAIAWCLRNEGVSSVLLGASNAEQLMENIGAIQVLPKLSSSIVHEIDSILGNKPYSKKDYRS
# assay_comment: KvBeta enzyme negative modulators, primary screen, biochemical, NADPH fluorescence (AID 622);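 note: slope of raw intensity against log time taken from 70 to 1610 s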
# assay_context: recombinant KvBeta, 4-cyanobenzaldehyde reduction, at 10 µM, active compounds read high
Quick list: fluorescence slope per entry.

- compound: "Cc1ccc(C(=O)CSC2=C(C#N)C(c3ccco3)C3=C(CCCC3=O)N2)cc1 (stereo not given)"
  fluorescence slope: -0.449
- compound: "Cc1ccc(Cl)c(Nc2ccccc2C(=O)O)c1Cl"
  fluorescence slope: -0.487
- compound: "CC1(C)Cc2c(oc3ncn4ncnc4c23)CO1"
  fluorescence slope: -0.569
- compound: "CSc1nc(C)cc(OCCNS(=O)(=O)c2cc(C)ccc2C)n1"
  fluorescence slope: -0.414
- compound: "CCCCOc1ccc(-c2nnc(N)s2)cc1"
  fluorescence slope: -0.405
- compound: "C=CCOC(=O)C1=C(C)OC(N)=C(C#N)C1c1ccoc1 (stereo not given)"
  fluorescence slope: -0.32
- compound: "CC(C)C1Cc2c(sc3c2c(=O)n(-c2ccccc2)c2nncn32)CO1 (stereo not given)"
  fluorescence slope: -0.379
- compound: "C[C@@H]1C[C@H]2[C@@H]3C[C@H](F)C4=CC(=O)C=C[C@]4(C)[C@@]3(F)[C@@H](O)C[C@]2(C)[C@@]1(O)C(=O)COC(=O)C(C)(C)C"
  fluorescence slope: -0.475
- compound: "CC(C)C1Cc2c(sc3c2c(=O)n(Cc2ccccc2)c2nncn32)CO1 (stereo not given)"
  fluorescence slope: -0.481
- compound: "Cc1cc(C(F)(F)F)nn1CC(=O)NCC1CCCO1 (stereo not given)"
  fluorescence slope: -0.484

###

# target_or_test_system: Dual specificity protein phosphatase 6 (Homo sapiens) (UniProt Q16828)
# Sequence (Q16828 whole entry, looked up): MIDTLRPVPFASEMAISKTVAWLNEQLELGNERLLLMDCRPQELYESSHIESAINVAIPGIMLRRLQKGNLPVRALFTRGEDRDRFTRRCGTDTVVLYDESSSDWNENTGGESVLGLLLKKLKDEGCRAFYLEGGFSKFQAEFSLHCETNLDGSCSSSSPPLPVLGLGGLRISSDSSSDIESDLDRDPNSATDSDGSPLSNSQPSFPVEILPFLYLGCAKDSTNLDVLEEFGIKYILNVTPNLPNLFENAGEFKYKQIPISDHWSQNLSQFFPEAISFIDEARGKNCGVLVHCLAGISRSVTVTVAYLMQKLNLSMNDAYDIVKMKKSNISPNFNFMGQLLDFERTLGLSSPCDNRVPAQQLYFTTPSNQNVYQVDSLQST
# assay_comment: DUSP6 inhibitors restoring Erk phosphorylation by chemical complementation, primary imaging in DUSP6-transfected HeLa (AID 609);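 note: phospho-Erk level distribution per well compared with pooled transfected vehicle control wells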
# assay_context: HeLa MKP-3 transfected, phospho-Erk imaging KS statistic; at 10 µM; active compounds read high; cells stimulated with TPA for 15 min

- compound: "OCCN(CCO)c1nc(N2CCCCC2)c2nc(N(CCO)CCO)nc(N3CCCCC3)c2n1"
  inhibition, %: -0.493
- compound: "Cc1ccc(C)c(OCCCC(C)(C)C(=O)O)c1"
  inhibition, %: 7.39
- compound: "CCN(CCCc1ccccc1)CCCc1ccccc1"
  inhibition, %: 9.37
- compound: "CC/C(C)=C1\\SC(N2CCN(C(C)=O)CC2)=NC1=O"
  inhibition, %: 4.37
- compound: "CCOC(=O)CC(=O)CSc1nc(N)c(C#N)c(-c2ccc(F)cc2)c1C#N"
  inhibition, %: -7.28
- compound: "CC(C)C[C@H](NC(=O)[C@@H]1O[C@H]1C(=O)O)C(=O)NCCCCN=C(N)N"
  inhibition, %: 3.45
- compound: "Cn1c(=O)n(CCC(=O)O)c2ccccc21"
  inhibition, %: -9.7
- compound: "CCN(CCCCOC(=O)c1ccc(OC)c(OC)c1)C(C)Cc1ccc(OC)cc1 (stereo unspecified)"
  inhibition, %: 9.37
- compound: "N#Cc1nc(-c2cccs2)oc1NCCc1ccccc1"
  inhibition, %: -6.48
- compound: "CCCCC[C@H](O)/C=C/C1=C(CCCCCCC(=O)O)C(=O)CC1"
  inhibition, %: -0.493
- compound: "COC(=O)C(NC(C)=O)(Nc1ccccn1)C(F)(F)F (stereo unspecified)"
  inhibition, %: 41.5

###

# assay_comment: inhibitors of E-selectin induction by TNFa, primary screen, imaging, HUVEC, immunofluorescence, MLSMR starter and 10KST1 sets (AID 487);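 note: signal is fraction of cell area covered by stained E-selectin grains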
# assay_context: HUVEC TNFalpha-induced E-selectin immunofluorescence imaging, at 2 µM; active compounds read high

- molecule: "COC(=O)C1=C(C)N=C2SC(C)C(=O)N2C1c1cccc(F)c1 (centres undefined)"
  unit_of_measure: "%"
  inhibition: -96.3
- molecule: "CCCNC(=O)NS(=O)(=O)c1ccc(Cl)cc1"
  unit_of_measure: "%"
  inhibition: -56.7
- molecule: "C=CCn1c(N)c(C(=O)OC(C)(C)C)c2nc3ccccc3nc21"
  unit_of_measure: "%"
  inhibition: -104
- molecule: "CSc1ccccc1NC(=O)c1c(Br)cnn1C"
  unit_of_measure: "%"
  inhibition: 26.1
- molecule: "CC(C)N1CC=C2C(C#N)=C(N)C(C#N)(C#N)C(c3ccccc3)C2C1 (centres undefined)"
  unit_of_measure: "%"
  inhibition: -126
- molecule: "NC(Cc1ccc(Oc2ccc(O)cc2)cc1)C(=O)O (centres undefined)"
  unit_of_measure: "%"
  inhibition: -19.7
- molecule: "Nc1nc(NC(=O)c2cccs2)nn1-c1ccccc1"
  unit_of_measure: "%"
  inhibition: 28.5
- molecule: "Cc1c(-c2cccs2)[n+](=O)c2c(n1[O-])CCCC2"
  unit_of_measure: "%"
  inhibition: -128
- molecule: "COc1cc2nc(N3CCN(C(=O)c4ccco4)CC3)nc(N)c2cc1OC"
  unit_of_measure: "%"
  inhibition: -130
- molecule: "O=C(O)c1c[nH]c2ccc(S(=O)(=O)N3CCOCC3)cc12"
  unit_of_measure: "%"
  inhibition: -208
- molecule: "O=C(COc1ccccc1)Nc1ccc(-c2nnc(-c3ccco3)o2)cc1"
  unit_of_measure: "%"
  inhibition: -252
- molecule: "C=CCN(C(=O)CCC(=O)O)C1CC(=O)N(c2ccc(OCCC)cc2)C1=O (centres undefined)"
  unit_of_measure: "%"
  inhibition: -213
- molecule: "CS(=O)(=O)CCC(C(=O)n1nnc2ccccc21)N1C(=O)c2ccccc2C1=O (centres undefined)"
  unit_of_measure: "%"
  inhibition: -46.5
- molecule: "CCOC(=O)c1oc2cc(O)cc(C)c2c(=O)c1-c1cscn1"
  unit_of_measure: "%"
  inhibition: -117
- molecule: "O=C(OCC#CCSc1nnc(-c2ccccc2)o1)c1cccs1"
  unit_of_measure: "%"
  inhibition: -178
- molecule: "COCCNc1oc(-c2ccc(Cl)cc2)nc1C#N"
  unit_of_measure: "%"
  inhibition: -25.2
- molecule: "Cc1ccsc1C1NC(=O)c2c(sc3c2CCCC3)N1 (centres undefined)"
  unit_of_measure: "%"
  inhibition: -31.6
- molecule: "CC(C)Oc1ccc(C(=O)CCN2CCCCC2)cc1"
  unit_of_measure: "%"
  inhibition: -349
- molecule: "CCCOc1ccc(/C(O)=C2/C(=O)C(=O)N(CCN3CCOCC3)C2c2ccccc2)cc1 (centres undefined)"
  unit_of_measure: "%"
  inhibition: -132
- molecule: "CC1(C)Cc2c(oc3ncn4ncnc4c23)CO1"
  unit_of_measure: "%"
  inhibition: -143
- molecule: "Cc1cccc(N(C)C(=S)Oc2ccc3ccccc3c2)c1"
  unit_of_measure: "%"
  inhibition: -124
- molecule: "NCc1ccc(S(N)(=O)=O)cc1"
  unit_of_measure: "%"
  inhibition: -71.2
- molecule: "COc1ccc(N2CCN(c3nc4c(c(=O)[nH]c(=O)n4C)n3CCCc3ccccc3)CC2)cc1"
  unit_of_measure: "%"
  inhibition: -69.3
- molecule: "CCOc1cc(CN2CCOCC2)cc(C(C)=O)c1"
  unit_of_measure: "%"
  inhibition: -113

###

# target_or_test_system: Voltage-gated potassium channel subunit beta-2 (Rattus norvegicus)
# assay_comment: KvBeta enzyme negative modulators, primary screen, biochemical, NADPH fluorescence (AID 622);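 note: slope of raw intensity against log time taken from 70 to 1610 s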
# assay_context: recombinant KvBeta, 4-cyanobenzaldehyde reduction, at 10 µM, active compounds read high

- molecule: "N#Cc1c(N)nc(SCC(=O)NCCc2ccccc2)c(C#N)c1-c1cccs1"
  fluorescence slope: -0.418
- molecule: "CN1CCN(Cc2c(O)ccc3c(-c4ccccc4)cc(=O)oc23)CC1"
  fluorescence slope: -0.269
- molecule: "CCOC(=O)C1=C(C)N=C2SC(C)C(=O)N2C1c1cccc(F)c1 (configuration not stated)"
  fluorescence slope: -0.448
- molecule: "Oc1ccc2c(c1)C1CCCC1(N1CCOCC1)O2 (configuration not stated)"
  fluorescence slope: -0.458
- molecule: "CCN(CC)CCCn1c(C)cc2c(c1=O)C(c1cccc(Cl)c1)C(C#N)=C(N)O2 (configuration not stated)"
  fluorescence slope: -0.388
- molecule: "CC(C)(S)[C@@H](N)C(=O)O"
  fluorescence slope: -0.482
- molecule: "O=C(O)CN(c1ccccc1)C1SC(=O)NC1=O (configuration not stated)"
  fluorescence slope: -0.506
- molecule: "C=CCNC(=O)C(C#N)c1nc2ccccc2nc1N1CCCCCC1 (configuration not stated)"
  fluorescence slope: -0.302
- molecule: "C1CCCN(CCCCN2CCCCCC2)CC1"
  fluorescence slope: -0.456
- molecule: "Cc1oncc1C(=O)Nc1ccc(C(F)(F)F)cc1"
  fluorescence slope: -0.489
- molecule: "CCOc1cccc(-c2nn3c(-c4ccccn4)nnc3s2)c1"
  fluorescence slope: -0.427
- molecule: "N#Cc1c(-c2ccccc2Cl)cc(C2CC2)nc1N"
  fluorescence slope: -0.415
